tested on: 786-0 renal; experiment: NCI tumour cell line growth inhibition, 48 h
Where a SMILES comes first, the peptide text is derived from it. [ ]: non-standard residue; d: D form. The star is where a group is joined. Phe(4-NO2) = N[CH](Cc1ccc([N+](=O)[O-])cc1)C(=O)O; Boc = CC(C)(C)OC(=O)*; OtBu = CC(C)(C)O*
Value type: TGI (µM)

Compound | Study target | Value type | Result units | Bound type | Numeric value
COc1cc(C2S/C(=C/c3ccccc3)C(=O)N2c2ccc(Cl)cc2)cc(OC)c1OC (stereo not drawn) | 786-0 renal | TGI | µM | > | 100
CSc1s[s+]c(SC)c1-c1ccccc1 | 786-0 renal | TGI | µM | = | 28.1
CCCCCCCCCCCCNC(=O)[C@H]1CSC(c2ccc(OC)c(F)c2)N1 (stereo partly drawn) | 786-0 renal | TGI | µM | = | 3.08
C=C(CCC(C(=O)O)C1CCC2(C)C3=C(CCC12C)C1(C)CCC(O)C(C)(C)C1CC3)C(C)C (stereo not drawn) | 786-0 renal | TGI | µM | > | 100
COC(=O)C(Cc1ccc([N+](=O)[O-])cc1)NC(=O)C(CC(=O)OC(C)(C)C)NC(=O)OC(C)(C)C (stereo not drawn) (Boc-Asp(OtBu)-[Phe(4-NO2)]-OMe; configuration not given here) | 786-0 renal | TGI | µM | > | 100
Nc1ccc2c(c1)CN1C(=O)c3ccccc3C1=N2 | 786-0 renal | TGI | µM | > | 125
CCOC(=O)Cc1csc(NC(=O)C(OC(=O)c2ccc(N)cc2)c2ccccc2)n1 (stereo not drawn) | 786-0 renal | TGI | µM | > | 100
C#Cc1ccc(-n2c(/C=C/c3cc(OC)c(OC)c(OC)c3)nc3ncccc3c2=O)cc1 | 786-0 renal | TGI | µM | > | 100
Cn1c(COC(=O)NCCN2CCOCC2)nc2c(N3CCOCC3)nc(-c3ccccc3)nc21 | 786-0 renal | TGI | µM | = | 2.23
CCOP(=O)(OCC)C(F)(F)CC1CCCCC1 | 786-0 renal | TGI | µM | > | 10
COc1ccc(N=C2NN=C(c3c[nH]c4ccccc34)CS2)cc1OC | 786-0 renal | TGI | µM | > | 91.5
COC(=O)Nc1nc2ccc(Sc3ccc(NC(=O)Nc4cc(C(F)(F)F)ccc4F)cc3)cc2[nH]1 | 786-0 renal | TGI | µM | = | 13.8
O=C(CCN1CCCCC1CO)Nc1ccc2c(c1)C(=O)c1ccc(NC(=O)CCN3CCCCC3CO)cc1C2=O (stereo not drawn) | 786-0 renal | TGI | µM | = | 6.58
C=C(C)[C@]12CC(C)C34OC(/C=C\C=C\CCCCCCCCC)(O[C@@H]1[C@@H]3[C@@H]1O[C@]1(CO)[C@@H](O)[C@]1(O)C(=O)C(C)=C[C@@H]41)O2 (stereo partly drawn) | 786-0 renal | TGI | µM | = | 21.5
CC1SC2(CCCCC2)N(NC(=O)c2[nH]c3ccc(F)cc3c2-c2ccccc2)C1=O (stereo not drawn) | 786-0 renal | TGI | µM | = | 89.2
Cc1csc(Nc2nc(-c3cccc(Cl)c3)nc(C(Cl)(Cl)Cl)n2)n1 | 786-0 renal | TGI | µM | > | 33.3
CC(=O)N[C@@H]1CCC[C@H](C(=O)Nc2cc(-c3cnn4c3CC(C)(C)C4)c(Cl)cn2)C1 | 786-0 renal | TGI | µM | = | 29.6
C/C=C\C(CC(=O)O)CC(=O)NCCC1CN(S(=O)(=O)C(F)(F)F)c2ccccc21 (stereo not drawn) | 786-0 renal | TGI | µM | > | 100

Each recorded value in this set is attributed to PubChem BioAssay (NCI).
